# measured on: LTC4S (Homo sapiens (Human))
# protocol: Human whole blood HTRF assay (LTC4 release after calcium ionophore A23187)
# Assay type: cell-based
# reported conditions: human whole blood diluted 1:3, 4 h incubation, calcium ionophore A23187 stimulation, LTC4 by HTRF; read-out: human whole blood HTRF IC50
The following molecules are shown together with reported pIC50 values.
// pIC50 here means minus log10 of the molar concentration (mol/L)

Worked cases, answers included:
O=C1CCCC2(CCN(c3nc(Cl)cc(O[C@@H]4CCOC4)n3)CC2)N1c1ccc(F)c(F)c1 [Example 72]: 6.12
[2H]C1(Oc2cc(N3CCC4(CCCC(=O)N4c4ccc(F)c(F)c4)CC3)nc(N)n2)CCOCC1 [Example 103]: 8.10

IN: State, for LTC4S (Homo sapiens (Human)), measured pIC50 of the molecule listed here: O=C1CCCC2(CCN(c3ncc4ccc(C(F)(F)F)cc4n3)CC2)N1c1ccc(Cl)c(F)c1 [Example 4]
OUT: 7.30

IN: State, for LTC4S (Homo sapiens (Human)), measured pIC50 of the molecule listed here: O=C1CCCC2(CCN(c3cc(N4CCCOCC4)ncn3)CC2)N1c1ccc(F)c(F)c1 [Example 45]
OUT: 6.21

IN: State, for LTC4S (Homo sapiens (Human)), measured pIC50 of the molecule listed here: Nc1nc(OCC(F)(F)F)cc(N2CCC3(CCCC(=O)N3c3ccc(F)c(F)c3)CC2)n1 [Example 91]
OUT: 8.52

IN: State, for LTC4S (Homo sapiens (Human)), measured pIC50 of the molecule listed here: O=C1CCCC2(CCN(c3cc(-n4cc(C(F)(F)F)cn4)nc(Cl)n3)CC2)N1c1ccc(F)c(F)c1 [Example 69]
OUT: 7.46
